Here, compounds appear alongside pIC50 reported for Neprilysin (Homo sapiens, UniProt P08473) in the literature.
pIC50: −log10 of the molar value.
measured_attribute: pIC50

[
  {
    "compound": "O=C1N[C@@H](C(=O)O)Cc2ccccc2CCCCCCC[C@@H]1CS",
    "recorded_measurement": "< 5.00"
  },
  {
    "compound": "O=C(NC1CCc2cccc3c2N(C1=O)[C@H](C(=O)O)C3)[C@@H](S)Cc1ccc(-c2ccccc2)cc1 (some centres undefined)",
    "recorded_measurement": "< 6.00"
  },
  {
    "compound": "COC(=O)[C@@H](CC(=O)N[C@@H](CO)C(=O)O)CC(C)C",
    "recorded_measurement": "< 3.00"
  },
  {
    "compound": "CC(C)(C)[C@H](NCP(=O)(O)O)C(=O)N[C@@H](Cc1ccc(-c2ccccc2)cc1)C(=O)O",
    "recorded_measurement": "< 6.00"
  }
]

* * *

Here, compounds appear alongside IC50 reported for UniProt P08473 in the literature.
measured_attribute: IC50

[
  {
    "entry_smiles": "O=C(Cc1ccc2nccnc2c1)N1CCCC1",
    "test_system": "UniProt P08473",
    "recorded_measurement": "> 50000 nM"
  },
  {
    "entry_smiles": "C[C@H](O)[C@H](NCP(=O)(O)O)C(=O)N[C@@H](Cc1ccc(-c2ccccc2)cc1)C(=O)O",
    "test_system": "UniProt P08473",
    "recorded_measurement": "> 1000 nM"
  },
  {
    "entry_smiles": "O=C(N[C@@H]1CCc2cccc3c2N(C1=O)[C@H](C(=O)O)C3)[C@@H](S)Cc1ccccc1",
    "test_system": "UniProt P08473",
    "recorded_measurement": "> 1000 nM"
  }
]

* * *

pIC50: −log10 of the molar value.
Here, compounds appear alongside pIC50 reported for Neprilysin (Homo sapiens) in the literature.

[
  {
    "compound": "CC[C@@H](C)[C@H](S)C(=O)NC1CCc2cccc3c2N(C1=O)[C@H](C(=O)O)C3 (stereo partly specified)",
    "pIC50": "< 6.00"
  },
  {
    "compound": "Oc1ccccc1/C=C/c1ccc2ccccc2n1",
    "pIC50": "< 4.00"
  },
  {
    "compound": "CC(C)Oc1ccc(C[C@H](NC(=O)[C@@H](NCP(=O)(O)O)C(C)C)C(=O)O)cc1",
    "pIC50": 8.05
  },
  {
    "compound": "O=C(O)[C@@H]1Cc2cccc3c2N1C(=O)C(NC(=O)C1(S)CCCC1)CC3 (stereo partly specified)",
    "pIC50": "< 6.00"
  },
  {
    "compound": "C[C@H](S)C(=O)NC1CCc2cccc3c2N(C1=O)[C@H](C(=O)O)C3 (stereo partly specified)",
    "pIC50": "< 6.00"
  },
  {
    "compound": "C[C@H](N[C@@H](CCc1ccccc1)C(=O)O)C(=O)N1C[C@@H](NC(=O)C[C@H](N)Cc2cc(F)c(F)cc2F)C[C@H]1C(=O)O",
    "pIC50": "< 4.00"
  }
]
